# method summary: yeast display, Sf9 membrane polyspecificity reagent, FACS + sequencing; frameworks hold sequencing errors
recorded metric: polyreactivity (PSR sort gate)

Answered examples (5):
monomer sequence	polyreactivity (PSR sort gate)
PVQLVESGGGLGQAGGSLRLSCAASGIIFNDYAMGWYRQAPGKERELVASIRSNTGSTNYADSVKGRFTISRDYAKNTVYLPMNSLKPEETAVSDCAADYLPDYGPRGGYWGQGTQVTVSS	low polyreactivity
QLQLVESGGGLVQAGGSLRLSCAASGSIFGPYARGWYRQAPGKERELVAAITDGGGSTYYADSVKGRFTISRDNAKNTVYLQMNSLKPEETAVDYCAADHSSKSGPADTFYWFDYWGQGTQVTVSS	low polyreactivity
QVHLVESGGGLVQAGGSLRLSCAASGRTFSWNALGWYRQAPGKQRELVAVISRGDSTNYADSVKGRFTISRDNEKNTVYLQMNSLKPVDNAVYYCAADGYPPGYGYWGQGTQVTVSS	low polyreactivity
QVQLVESGGGLVQAGGSLRLSCAASGRTFRYYVMGWYRQAPGKERELVADISRGGGRTRYADSVKGRFTISRDNAKNTVDLQMNSLKPEDTAVYYCAARSYTGQFGYWGQGTQVTVSS	high polyreactivity
QVQLVESGGGLVQAGGSLRLSCAATGSILEYYVMGWYRLAPGKERELVAAIRGGGSTYYADAVKGRFTISRDNAKNSVYLQMNSLKPEDTAVEYCAKDSQPARDFDYWGQGTQVTVSS	low polyreactivity

q: So what does the record say about polyreactivity (PSR sort gate) for QVQLVESGGGLVQAGGSLRLSSAASGRTYNVYAMGWSRQAPGKERELVAGITRASTNYADSVKGRFTISRDNAKNTVYLLMNSLKPEVTAVYYCAAKIFPKGDYWGQGTQVTVSS ?
a: high polyreactivity

----------
# method summary: yeast display, Sf9 membrane polyspecificity reagent, FACS + sequencing; frameworks hold sequencing errors

monomer sequence	polyreactivity (PSR sort gate)
QVQLVESGGGLVQAGGSLRLSCAASGLIFDDYAMGWYRQAPGKERELVAAISWSDGTTYYADSVKGRFTISRDNAKNTVYLQMNSLKPEDTAVYYCAAEEVSGWEYDYWGQGTQVTVSS	high polyreactivity
QVHLVESGGGLVQAGGSLRLSCAASGRISFNAMGWYRQAHAKERELVAAISRRGGSTYYADSVKGRFTISRDNAKNTVSLQMNSLKPEDTAVYYCAPDIIRPVTVDYWGQGTQVTVSS	high polyreactivity

----------
# method summary: yeast display, Sf9 membrane polyspecificity reagent, FACS + sequencing; frameworks hold sequencing errors
recorded metric: polyreactivity (PSR sort gate)

Answered examples (8):
monomer sequence	polyreactivity (PSR sort gate)
QVQLVESGGGLVQAGGSLRLSCAASGRIFIRNDMGWYRQAPGKERELVAVITRSGGRTYYADSVKGRFTISRDNAMNTVYLQMNSLKPEDTAVYYCAKRQAFKQAPYEYWGQGSQVTVSS	low polyreactivity
QVQLVESGGGLVQAGGSLRLSCAASGFIIYRNPMGWYRQAPGKERELVAGISSGGSTNYADSVKGRFTISRDNEKNTVYLQMNSLKPEDTAVYYCASRVYALWFGRYDYWGQGTQVIVSS	high polyreactivity
QVQLVESGGGLVQAGGSLRLSFDASGFISGDNTMGWYRQAPGKERELVAAINSGGSTYYADSVKGRFTISRDNAKNTFYLQMNSLKPEDTAVYYCAADYSTWLRAYDFWGQGTQVTVSS	low polyreactivity
QVQLVESGGGLVQAGGILSLSCAASGRIFVYYMGWYRQAPGKESELVAAISFGGGSTYYADSVKGRFTISRDNAKNTVYLQMNSLKPEDTAVYYCNADGDDLDWNYYLVQYDSWGQGTQVTVSS	low polyreactivity
QVQLVESAAGLVQAGGSLRLSCAASGFTFSFYTMGWYRQAPAKDRELVAAISSGGTPYYADSVKGRFTISRDNAKNTVYLQMNSLKPEDTAVYYCAAYGRYASWIEFYSNYDYWGQGTQVTVSS	low polyreactivity
QVQLVESGGGLVQAGGSLRLSCAASGSIFYFYTMGWYRQAPGKERELVASITYSGGRTYYADSVKGRFTISRDNAKNTVYLQMNSLKPEDTAVYYCAVRGYRRYWGQGTQVTVSS	high polyreactivity
QVQLVESGGGLVQAGGSLRLSCAASGSIFYRNAMGWYRQAPGKERELVAAITSSGGSTYYADSVKGRFTISRDNAKNTVYLQMNSLKPEDTAVYYCATRGWSKQLYGGYTQYYYWGQGTQVTVSS	high polyreactivity
QVQLVESGGGLVQAGGSLRLSCAASGSIFEGYAMGWYRQAPGKERELVAAISRSGGSTYYADSVKGRFPISRDNAKNTVYLQMNSLKPEDTAVYYCAARKAIDYQGRHDHWGQGTQVTVSS	low polyreactivity

Quick batch: polyreactivity (PSR sort gate) for everything below.
1. QVQLVESGGGLVQAGGSVRLSCAASGSIFQYNTMGWYRQAPGKDRELFADINGRGGSTYYADSVKGRFTISRDNAKNTVYLQMNSLKPEDTGVYYCNARVFGGYSKYLFIGRYYWGQGTQVTVSS
2. QVQLVESGGGLVQAGGSLRLSCAASGSTFDQYGMGWYRQAPGKERELVAAITSVGGTNYADSVKGRFTISRDNAKNTVYLKMNSLKPEDTAVYYCAAGSVSQYDSWGQGTQVTVSS

a:
low polyreactivity
low polyreactivity

Quick batch: polyreactivity (PSR sort gate) for everything below.
1. QVQLVESGGGLVQEGGSLRISCAASGRTFIGYTIGWYRQAPRKERELFAAITWNGGRTYYADSVKGRFTISRDNAKNTVYLQMNSLKPEVTAVYYCAAPRRVVIGGGDYWGQGTQVTVSS
2. QVQLVESGGGLVQAGGSLRLSCAASGSILALYTMGWYRQAPGKEREFVATITSSDGSTYYADSVKGRFTISRDNAKNTVYLQMNSLKPEDTAVYYCNARGSVYYLKFDYWGQGTQVTVSS
3. QVQLVESGGGLVQAGGSLRLSCAASGLILYYYAMGWYRQAPGKERELVAAISRRDGDTYYADSVKGRFTISRDNAKNTVYLQMNSLKPEDTAVYYCAAERRWSWVVRDDYWGQGTQVTVSS

a:
high polyreactivity
low polyreactivity
low polyreactivity
